Biological target: human RORγt ligand binding domain (RORγt LBD) (Homo sapiens (Human))
Sequence (P51449 other isoform, or with tags, fused parts or gaps): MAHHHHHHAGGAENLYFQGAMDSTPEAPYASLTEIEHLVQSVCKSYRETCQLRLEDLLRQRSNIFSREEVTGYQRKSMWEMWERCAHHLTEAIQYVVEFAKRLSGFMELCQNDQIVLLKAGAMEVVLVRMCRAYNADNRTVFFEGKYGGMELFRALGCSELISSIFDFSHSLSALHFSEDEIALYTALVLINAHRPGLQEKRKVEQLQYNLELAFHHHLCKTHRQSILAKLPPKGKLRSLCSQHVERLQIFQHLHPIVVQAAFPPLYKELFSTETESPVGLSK
pKd: −log10 of the molar value.
# label = TRUE if pKd >= 8 else FALSE

# bool: pKd of [2H]C([2H])([2H])Oc1cc(CCC(F)(F)F)ccc1-n1c(CC)nc(C(=O)NC[C@]2(O)CC[C@@H](S(C)(=O)=O)CC2)c1C#N [Example 30] >= 8
FALSE

# bool: pKd of CCc1nc(C(=O)NC[C@]2(O)CC[C@@H](S(C)(=O)=O)CC2)c(Cl)n1-c1ccc(CC(C)C)cc1OC [Example 90] >= 8
TRUE

Tell me whether pKd is at least 8 here: CCc1nc(C(=O)NC[C@H]2CC[C@H](S(C)(=O)=O)CC2)c(Cl)n1-c1ccc(N[C@H](C)C(F)(F)F)cc1OC [Example 3]
TRUE

Say whether CCc1nc(C(=O)NC[C@H]2CC[C@H](S(C)(=O)=O)CC2)c(Cl)n1-c1ncc(CC(C)(C)C(F)(F)F)cc1C [Example 74] shows pKd of 8 or more.
FALSE

Does the reported pKd for CCc1nc(C(=O)NC[C@@H]2CC[C@@H](S(C)(=O)=O)C[C@H]2O)c(Cl)n1-c1ncc(CC(C(F)(F)F)C(F)(F)F)cc1OC(F)F (stereo in doubt) [Example 65] fall at or above the 8 mark?
FALSE

Is it the case that C#Cc1c(C(=O)NC[C@H]2CC[C@H](S(C)(=O)=O)CC2)nc(CC)n1-c1ccc(CC(C)(C)C(F)(F)F)cc1OC(F)F [Example 41] has pKd reaching or exceeding 8?
TRUE

###

Target: full-length human RORγt (Homo sapiens (Human), UniProt P51449)
Sequence (P51449 other isoform, or with tags, fused parts or gaps): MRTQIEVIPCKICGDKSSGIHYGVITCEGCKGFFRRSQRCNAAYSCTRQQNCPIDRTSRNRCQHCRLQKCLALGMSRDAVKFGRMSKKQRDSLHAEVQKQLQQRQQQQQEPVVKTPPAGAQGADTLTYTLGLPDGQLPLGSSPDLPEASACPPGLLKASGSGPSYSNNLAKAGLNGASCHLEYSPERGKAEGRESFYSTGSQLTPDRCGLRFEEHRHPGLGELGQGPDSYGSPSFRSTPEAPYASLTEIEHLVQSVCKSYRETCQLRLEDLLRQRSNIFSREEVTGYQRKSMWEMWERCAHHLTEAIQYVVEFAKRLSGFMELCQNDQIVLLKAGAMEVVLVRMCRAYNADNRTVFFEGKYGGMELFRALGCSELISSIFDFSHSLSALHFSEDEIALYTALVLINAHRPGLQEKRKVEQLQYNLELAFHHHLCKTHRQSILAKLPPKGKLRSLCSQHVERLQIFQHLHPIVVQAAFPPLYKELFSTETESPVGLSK
Experiment: RORγt (full-length human) reporter assay, conditions A or B
Assay type: cell-based
Details: read-out: RORγt (FL) Reporter Assay A or B, % inhibition @ 6 μM; 6 μM compound concentration
readoutLabel: inhibition at 6 µM (%)
Supply the numeric figure in %, leaving out any unit text.

What value of measured inhibition at 6 µM is listed for CCc1nc(C(=O)NC[C@]2(O)CC[C@@H](S(C)(=O)=O)CC2)c(C#N)n1-c1ncc(CC(C)(C)C(F)(F)F)cc1OC [Example 123] ?
102

# lookup: inhibition at 6 µM of CCc1nc(C(=O)NC[C@H]2CC[C@H](S(C)(=O)=O)CC2)c(Cl)n1-c1ncc(CCCC(F)(F)F)cc1OC(F)F [Example 48]
104

Can you look up the measured inhibition at 6 µM of CCc1nc(C(=O)NC[C@H]2CC[C@H](S(C)(=O)=O)CC2)c(C)n1-c1ncc(CC(C)(C)C(F)(F)F)cc1OC(F)F [Example 49] for me?
94

Name the reported inhibition at 6 µM value associated with the compound [2H]C([2H])([2H])Oc1cc(CCC(F)(F)F)ccc1-n1c(CC)nc(C(=O)NC[C@H]2CC[C@H](S(C)(=O)=O)CC2)c1C#N [Example 29]
95

Entry under review: CCc1nc(C(=O)NC[C@]2(O)CC[C@@H](S(C)(=O)=O)CC2)cn1-c1c(F)cc(CC(C)C)cc1F [Example 81] . Reported inhibition at 6 µM?
27

Which inhibition at 6 µM is listed for CCc1nc(C(=O)NC[C@]2(O)CC[C@@H](S(C)(=O)=O)CC2)c(Cl)n1-c1ncc(CCCC(F)(F)F)cc1OC(F)F [Example 47] ?
98
